- Test system: U2OS
- experimental-protocol: Multiplex assay against U2OS
- Format: toxicity, cell-based
- assay-conditions: human, 24 h, 1 µM, compound concentration 1 uM, replicate 2
attribute-measured: Population Tubulin-Different-Phenotype (%)

{"compound": "CCc1cccc(CC)c1NC(=O)c1nn(C)c2c1CCc1cnc(Nc3ccc(C(=O)NC4CCN(C)CC4)cc3OC(F)(F)F)nc1-2", "target-system": "U2OS", "numeric-value": 19}
{"compound": "CCn1c(=O)c(-c2ccc(-c3cncs3)cc2Cl)cc2cnc(Nc3ccc(N4CCN(C)CC4)cc3)nc21", "target-system": "U2OS", "numeric-value": 20}
{"compound": "C[C@H]1Oc2cc(cnc2N)-c2c(nn(C)c2C#N)CN(C)C(=O)c2ccc(F)cc21 [LORLATINIB]", "target-system": "U2OS", "numeric-value": 31}
{"compound": "O=C(Nc1cccnn1)N1CCC(=Cc2cccc(Oc3ccc(C(F)(F)F)cn3)c2)CC1", "target-system": "U2OS", "numeric-value": 11}
{"compound": "CN1C2CCC1CC(OC(c1ccc(F)cc1)c1ccc(F)cc1)C2.Cl (stereo unspecified)", "target-system": "U2OS", "numeric-value": 8}
{"compound": "O=C(Nc1ccc(Cl)cc1)Nc1cccc(-c2cccc(N3CCCC3)n2)c1", "target-system": "U2OS", "numeric-value": 12}
{"compound": "CN1CCN(C(=O)C(C)(C)c2ccc(C(=O)Nc3cn4cc(-c5cc(C(C)(C)C)cc(C(C)(C)C)c5)ccc4n3)cc2)CC1 [T3-CLK-N]", "target-system": "U2OS", "numeric-value": 16}
{"compound": "Cl.Oc1ccc2c3c1O[C@H]1c4[nH]c5c(c4C[C@@]4(O)[C@@H](C2)N(CC2CC2)CC[C@]314)C[C@@]1(O)[C@H]2Cc3ccc(O)c4c3[C@@]1(CCN2CC1CC1)[C@H]5O4", "target-system": "U2OS", "numeric-value": 18}
{"compound": "CCNc1cc(N[C@H]2CC[C@H](O)CC2)nc(Nc2ccc3c(ccn3Cc3ccccc3)c2)n1", "target-system": "U2OS", "numeric-value": 65}
{"compound": "CCCS(=O)(=O)c1nc(NC2CC2)cc(-c2ccc3c(ccn3C3CC(C)(C)NC(C)(C)C3)c2)n1", "target-system": "U2OS", "numeric-value": 29}
{"compound": "COc1ccc(-c2ccc3c(N4CCOCC4)nc(N4C[C@@H](C)O[C@@H](C)C4)nc3n2)cc1CO [Ku-0063794]", "target-system": "U2OS", "numeric-value": 31}

====

# Lookup of reported Population Membrane Permeable-Phenotype (%) keyed by entry
- System: Fibroblast
- experimental-protocol: Multiplex assay against human fibroblast
- Format: toxicity, cell-based
- assay-conditions: 24 h, 10 µM, compound concentration 10 uM, replicate 1
attribute-measured: Population Membrane Permeable-Phenotype (%)

{"compound": "COc1ccc(S(=O)(=O)N(CCO)c2ccccc2CN(C)C/C=C/c2ccc(Cl)cc2)cc1.O=P(O)(O)O", "numeric-value": 8}
{"compound": "O=C(Nc1cccnn1)N1CCC(=Cc2cccc(Oc3ccc(C(F)(F)F)cn3)c2)CC1", "numeric-value": 1}
{"compound": "CN1CCN(C(=O)C(C)(C)c2ccc(C(=O)Nc3cn4cc(-c5cc(C(C)(C)C)cc(C(C)(C)C)c5)ccc4n3)cc2)CC1", "numeric-value": 22}
{"compound": "C=C1/C(=C\\C=C2/CCC[C@]3(C)[C@@H]([C@H](C)/C=C/[C@H](C)C(C)C)CC[C@@H]23)C[C@@H](O)C[C@@H]1O", "numeric-value": 12}
{"compound": "CCc1cccc(CC)c1NC(=O)c1nn(C)c2c1CCc1cnc(Nc3ccc(N4CCN(C)CC4)cc3OC)nc1-2", "numeric-value": 4}
{"compound": "Cl.Oc1ccc2c3c1O[C@H]1c4[nH]c5c(c4C[C@@]4(O)[C@@H](C2)N(CC2CC2)CC[C@]314)C[C@@]1(O)[C@H]2Cc3ccc(O)c4c3[C@@]1(CCN2CC1CC1)[C@H]5O4", "numeric-value": 25}
{"compound": "Cl.O=c1c2cccn2c2ccccc2n1CCCN1CCC(c2ccc(Cl)cc2)CC1", "numeric-value": 7}
{"compound": "CCn1cc(-c2ccnc3[nH]c(-c4cccc(CN(C)C)c4)cc23)c(-c2ccc(NC(=O)N(C)C)cc2)n1", "numeric-value": 0}
{"compound": "CNc1cc(Oc2cc(C(=O)Nc3cc(N4CCN(C)CC4)cc(C(F)(F)F)c3)ccc2C)ncn1", "numeric-value": 15}
{"compound": "COc1ccc(-c2ccc3c(N4CCOCC4)nc(N4C[C@@H](C)O[C@@H](C)C4)nc3n2)cc1CO", "numeric-value": 10}
{"compound": "CCOC(=O)c1c(C)[nH]c2ccc3c(c12)CN1CCc2cc(OC)ccc2C1O3 (stereo not given)", "numeric-value": 13}
{"compound": "COc1cc2ncnc(Nc3ccc(F)c(Cl)c3)c2cc1NC(=O)/C=C/CN1CCCCC1 [DACOMITINIB ANHYDROUS]", "numeric-value": 6}
{"compound": "COc1cccc2cc(-c3nc([C@H]4CC[C@H](C(=O)O)CC4)n4ncnc(N)c34)[nH]c12", "numeric-value": 6}
{"compound": "C=CCn1c(=O)c2cnc(Nc3ccc(N4CCN(C)CC4)cc3)nc2n1-c1cccc(C(C)(C)O)n1", "numeric-value": 4}
{"compound": "O=C(Nc1ccc(Cl)cc1)Nc1cccc(-c2cccc(N3CCCC3)n2)c1", "numeric-value": 45}

====

- System: U2OS
- experimental-protocol: Multiplex assay against U2OS
- Assay type: toxicity, cell-based
- assay-conditions: human, 12 h, 10 µM, compound concentration 10 uM, replicate 1
Class field: derived from Population Healthy Nuclei (%); ranges LOW (below 50%), MEDIUM (50% to below 70%), HIGH (70% or more)

{"compound": "COc1cc2ncnc(Nc3ccc(F)c(Cl)c3)c2cc1NC(=O)/C=C/CN1CCCCC1 [DACOMITINIB ANHYDROUS]", "target-system": "U2OS", "label-value": "HIGH"}
{"compound": "CNc1cc(Oc2cc(C(=O)Nc3cc(N4CCN(C)CC4)cc(C(F)(F)F)c3)ccc2C)ncn1", "target-system": "U2OS", "label-value": "LOW"}
{"compound": "S=C(NCCCc1c[nH]cn1)NCCCN(Cc1ccc(Cl)c(Cl)c1)c1ccc(Br)cn1", "target-system": "U2OS", "label-value": "LOW"}
{"compound": "Cn1nc(C(F)(F)F)cc1-c1cnc(N2CCc3cc(S(=O)(=O)Nc4c(F)cc(Cl)cc4F)cc(N4CCCC4=O)c32)nc1 [TP-020]", "target-system": "U2OS", "label-value": "HIGH"}
{"compound": "CN(C)C(=O)C(CCN1CCC(O)(c2ccc(Cl)cc2)CC1)(c1ccccc1)c1ccccc1.Cl [LOPERAMIDE HYDROCHLORIDE]", "target-system": "U2OS", "label-value": "LOW"}
{"compound": "CCn1c(=O)c(-c2ccc(-c3cncs3)cc2Cl)cc2cnc(Nc3ccc(N4CCN(C)CC4)cc3)nc21", "target-system": "U2OS", "label-value": "LOW"}
{"compound": "Cl.O=C(c1ccc(Nc2nccc(-c3cc4ccccc4s3)n2)cc1)N1CCC(N2CCCC2)CC1", "target-system": "U2OS", "label-value": "LOW"}
{"compound": "COc1cccc2cc(-c3nc([C@H]4CC[C@H](C(=O)O)CC4)n4ncnc(N)c34)[nH]c12 [OSI-027]", "target-system": "U2OS", "label-value": "HIGH"}
{"compound": "CCc1cccc(CC)c1NC(=O)c1nn(C)c2c1CCc1cnc(Nc3ccc(C(=O)NC4CCN(C)CC4)cc3OC(F)(F)F)nc1-2", "target-system": "U2OS", "label-value": "MEDIUM"}
{"compound": "CNC(=O)c1ccc(Nc2nc(OC3CCCC3)c3c(-c4ccc5nc(C)oc5c4)c[nH]c3n2)c(OC)c1", "target-system": "U2OS", "label-value": "HIGH"}
{"compound": "CCCn1c(=O)c2[nH]c(-c3cnn(Cc4cccc(C(F)(F)F)c4)c3)nc2n(CC)c1=O [GS 6201]", "target-system": "U2OS", "label-value": "MEDIUM"}
{"compound": "Cc1cn(-c2cc(NC(=O)c3ccc(C)c(Nc4nccc(-c5cccnc5)n4)c3)cc(C(F)(F)F)c2)cn1 [NILOTINIB]", "target-system": "U2OS", "label-value": "LOW"}
{"compound": "COc1cc(N2CCN(C)CC2)ccc1Nc1ncc2c(n1)N(C)c1ccccc1C(=O)N2C", "target-system": "U2OS", "label-value": "MEDIUM"}
{"compound": "CCn1cc(-c2ccnc3[nH]c(-c4cccc(CN(C)C)c4)cc23)c(-c2ccc(NC(=O)N(C)C)cc2)n1 [GSK-1070916]", "target-system": "U2OS", "label-value": "MEDIUM"}
{"compound": "CN1CCN(C(=O)C(C)(C)c2ccc(C(=O)Nc3cn4cc(-c5cc(C(C)(C)C)cc(C(C)(C)C)c5)ccc4n3)cc2)CC1 [T3-CLK-N]", "target-system": "U2OS", "label-value": "HIGH"}
{"compound": "O=C1NC(=O)C(c2cnc3ccccn23)=C1c1cn2c3c(cc(F)cc13)CN(C(=O)N1CCCCC1)CC2 [LY-2090314]", "target-system": "U2OS", "label-value": "HIGH"}
{"compound": "NC(=O)c1cccc(-c2cc(Nc3ccc(OC(F)(F)F)cc3)ncn2)c1", "target-system": "U2OS", "label-value": "HIGH"}
{"compound": "Cc1ccc(C(=O)Nc2cccc(C(F)(F)F)c2)cc1Nc1nc(-c2cccnc2)nc2c1cnn2C", "target-system": "U2OS", "label-value": "LOW"}
{"compound": "Cc1ccc2nc(NCCN)c3ncc(C)n3c2c1.O=C(O)C(F)(F)F.O=C(O)C(F)(F)F", "target-system": "U2OS", "label-value": "MEDIUM"}
{"compound": "O=C(Nc1ccc(-c2ccnc(Nc3ccc(N4CCOCC4)cc3)n2)cc1)[C@@H]1CCCN1", "target-system": "U2OS", "label-value": "MEDIUM"}
{"compound": "CCCS(=O)(=O)c1nc(NC2CC2)cc(-c2ccc3c(ccn3C3CC(C)(C)NC(C)(C)C3)c2)n1", "target-system": "U2OS", "label-value": "LOW"}
{"compound": "Cc1cc(C)c(S(=O)(=O)N(Cc2ccc(-c3cccc(S(C)(=O)=O)c3)cc2)Cc2ccc(C(F)(F)F)o2)c(C)c1", "target-system": "U2OS", "label-value": "HIGH"}
{"compound": "Cl.O=c1c2cccn2c2ccccc2n1CCCN1CCC(c2ccc(Cl)cc2)CC1", "target-system": "U2OS", "label-value": "MEDIUM"}
{"compound": "Cl.Oc1ccc2c3c1O[C@H]1c4[nH]c5c(c4C[C@@]4(O)[C@@H](C2)N(CC2CC2)CC[C@]314)C[C@@]1(O)[C@H]2Cc3ccc(O)c4c3[C@@]1(CCN2CC1CC1)[C@H]5O4", "target-system": "U2OS", "label-value": "HIGH"}
{"compound": "CCOc1cc(C(=O)N2CCC(N3CCN(C)CC3)CC2)ccc1Nc1ncc2c(n1)N(C1CCCC1)c1ccccc1C(=O)N2C", "target-system": "U2OS", "label-value": "LOW"}
{"compound": "CCc1cccc(CC)c1NC(=O)c1nn(C)c2c1CCc1cnc(Nc3ccc(N4CCN(C)CC4)cc3OC)nc1-2", "target-system": "U2OS", "label-value": "HIGH"}
{"compound": "CCN1CCN(Cc2ccc(Nc3ncc(F)c(-c4cc(F)c5nc(C)n(C(C)C)c5c4)n3)nc2)CC1.CS(=O)(=O)O", "target-system": "U2OS", "label-value": "LOW"}
{"compound": "CN1CCC(=C2c3ccccc3CC(=O)c3sccc32)CC1.O=C(O)/C=C/C(=O)O [KETOTIFEN FUMARATE]", "target-system": "U2OS", "label-value": "MEDIUM"}
{"compound": "COC(=N)c1nc2ccc3ncnc(Nc4ccc(OC)cc4F)c3c2s1", "target-system": "U2OS", "label-value": "HIGH"}
